# tested_target: T1, RESTV GP on rVSV particles (Reston virus (RESTV), UniProt Q66799 34-677)
# T1 sequence: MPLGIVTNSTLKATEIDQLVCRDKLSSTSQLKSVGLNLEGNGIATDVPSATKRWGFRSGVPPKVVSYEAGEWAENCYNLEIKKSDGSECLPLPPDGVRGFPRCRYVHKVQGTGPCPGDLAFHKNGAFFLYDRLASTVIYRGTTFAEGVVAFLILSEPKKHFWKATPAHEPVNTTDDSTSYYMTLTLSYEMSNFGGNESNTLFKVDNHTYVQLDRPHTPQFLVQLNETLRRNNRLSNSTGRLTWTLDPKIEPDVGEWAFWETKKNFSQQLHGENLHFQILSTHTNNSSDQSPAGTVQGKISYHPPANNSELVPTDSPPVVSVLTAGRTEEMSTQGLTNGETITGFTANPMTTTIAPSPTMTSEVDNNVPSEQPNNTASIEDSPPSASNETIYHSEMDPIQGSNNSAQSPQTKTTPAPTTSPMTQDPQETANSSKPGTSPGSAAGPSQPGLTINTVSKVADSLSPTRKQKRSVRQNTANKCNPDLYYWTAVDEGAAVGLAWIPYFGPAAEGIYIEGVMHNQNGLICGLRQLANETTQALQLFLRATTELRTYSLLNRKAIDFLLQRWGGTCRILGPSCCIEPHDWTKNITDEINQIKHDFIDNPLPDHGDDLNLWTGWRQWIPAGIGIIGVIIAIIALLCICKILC
# experiment_description: cell-based or functional assay

binder	IC50 (nM), neutralization of rVSV-GP
PE-87 H100A (antibody, V domains shown) VH: QVQLVQSGVTLVQPGGSLRVSCAASGFTFSSYAMSWVRQAPGKGLEWVSAISGLGGSTYYADSVKGRFTISRDNSKNTLYLQMNSLRAEDTAVYYCAKDARVWAAGYHFDYWGQGALVTVSS VL: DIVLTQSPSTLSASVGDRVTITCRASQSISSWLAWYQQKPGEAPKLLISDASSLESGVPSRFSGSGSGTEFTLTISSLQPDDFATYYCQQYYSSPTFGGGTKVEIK	0.2
PE-87 R101A (antibody, V domains shown) VH: QVQLVQSGVTLVQPGGSLRVSCAASGFTFSSYAMSWVRQAPGKGLEWVSAISGLGGSTYYADSVKGRFTISRDNSKNTLYLQMNSLRAEDTAVYYCAKDHAVWAAGYHFDYWGQGALVTVSS VL: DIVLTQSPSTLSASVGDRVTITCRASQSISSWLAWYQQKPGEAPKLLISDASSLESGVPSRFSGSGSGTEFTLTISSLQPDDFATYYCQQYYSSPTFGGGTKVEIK	0.2
PE-87 Y107A (antibody, V domains shown) VH: QVQLVQSGVTLVQPGGSLRVSCAASGFTFSSYAMSWVRQAPGKGLEWVSAISGLGGSTYYADSVKGRFTISRDNSKNTLYLQMNSLRAEDTAVYYCAKDHRVWAAGAHFDYWGQGALVTVSS VL: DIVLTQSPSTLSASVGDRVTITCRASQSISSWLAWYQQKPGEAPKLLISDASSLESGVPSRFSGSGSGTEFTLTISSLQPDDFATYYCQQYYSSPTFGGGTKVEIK	1.3
